System: MCF7 breast
Assay: NCI-60 one-dose screen, 48 h (100 = growth as untreated, 0 = no growth, -100 = all killed)
Conditions: 10 µM unless noted
Compounds without any hit were thinned out: in the full panel of roughly 83,000, 20% have a hit.
Please note: Fulfilled applies when growth is 90% or greater, and Not fulfilled applies otherwise.

These recorded examples may help you get a feel for the data.
Structure | Category Label
CCCNC(=O)Oc1ccc(/C(=C(/C)Cc2ccc(OC)cc2)c2ccc(OCCN3CCCCC3)cc2)cc1 | Not fulfilled
COc1ccc(C(=O)c2no[n+]([O-])c2C(=O)c2ccc(OC)cc2)cc1 | Not fulfilled

Kindly consider the entry below.
Quick check, growth >= 90%? "O=C1NCCN1/N=C/c1c(Cl)nc2n1CCS2"
Fulfilled
